Attribution: PubChem BioAssay (NCI)

Test system: A549 NSCLC
Experiment Notes: NCI tumour cell line growth inhibition, 48 h
Reported Property: TGI

[[record]]
compound = "O=c1oc2ccc(Cl)cc2c(=O)n1-c1ccc(I)cc1F"
result = "> 100 µM"

[[record]]
compound = "N#Cc1c2c([nH]c(=O)c1C#N)CCCC2"
result = "> 100 µM"

[[record]]
compound = "COc1ccc(-c2c(C#N)c(S)n(C3OC(CO)C(O)C(O)C3O)c(=O)c2C#N)cc1 (stereo unspecified)"
result = "> 100 µM"

[[record]]
compound = "O=C1CCc2cc3c(cc21)CC1(Cc2ccccc2C1)C3"
result = "> 100 µM"

[[record]]
compound = "CN(C)c1ccc(/C=C/c2cc[n+](C)c3ccccc23)cc1"
result = "> 90.8 µM"

[[record]]
compound = "COC(=O)[C@]1(C)CCC[C@@]2(C)C1CCC1=C[C@@]3(C(C)C)CC[C@]12OO3 (stereo partly specified)"
result = "> 100 µM"

[[record]]
compound = "COc1ccc2c(c1)C(=O)c1c-2n(CCCN2CCOCC2)c(=O)c2ccccc12"
result = "8.41 µM"

[[record]]
compound = "CCc1cc2c(cc1CCCC(=O)O)CC1(Cc3ccc(C(=O)O)cc3C1)C2 (stereo unspecified)"
result = "> 100 µM"

[[record]]
compound = "CCOC(=O)CN1CCSC1=NC#N"
result = "> 100 µM"

[[record]]
compound = "CCc1c2c(nc3cccc(N)c13)-c1cc3c(c(=O)n1C2)COC(=O)[C@]3(O)CC"
result = "0.504 µM"

[[record]]
compound = "Cc1cccc(C)c1NC(=O)CCCC(=O)C1CCC/C1=N\\NC(=O)C(=O)NN (stereo unspecified)"
result = "> 100 µM"


###

System: M14 melanoma
Experiment Notes: NCI tumour cell line growth inhibition, 48 h; in the data active = GI50 below about 0.43 µM; inactive = the rest
Classes used: active, inactive

[[record]]
compound = "COc1ccc2c(c1)C(=O)c1c-2n(CCCN2CCOCC2)c(=O)c2ccccc12"
test_system = "M14 melanoma"
group = "inactive"

[[record]]
compound = "Nc1nc(OCc2ccccc2)nc2[nH]ncc12"
test_system = "M14 melanoma"
group = "inactive"

[[record]]
compound = "S=c1ssc(Sc2ccccn2)c1Cl"
test_system = "M14 melanoma"
group = "inactive"

[[record]]
compound = "CC(=O)OC1C2(CC3N4C(=O)C5(CO)SSC4(CC31O)C(=O)N5C)OC(C)C(C)(C)C2=O (stereo not given)"
test_system = "M14 melanoma"
group = "active"

[[record]]
compound = "CCc1c2c(nc3cccc(N)c13)-c1cc3c(c(=O)n1C2)COC(=O)[C@]3(O)CC"
test_system = "M14 melanoma"
group = "active"

[[record]]
compound = "CCc1c[nH]c2ncnc(N3CC[C@@](N)(CNC(=O)c4ccc(F)cc4F)C3)c12"
test_system = "M14 melanoma"
group = "inactive"

[[record]]
compound = "CCCCCCCCCCCCC(=O)[O-].CCCCCCCCCCCCC(=O)[O-].CCCCCCCCCCCCC(=O)[O-].CCCCCCCCCCCCC(=O)[O-].[Mo+2].[Mo+2]"
test_system = "M14 melanoma"
group = "inactive"

[[record]]
compound = "CN(C)c1ccc(N=Nc2c([O-])ccc3ccccc23)cc1.[C-]#[O+].[C-]#[O+].[Ir]"
test_system = "M14 melanoma"
group = "inactive"

[[record]]
compound = "CCOC(=O)N1CCN(S(=O)(=O)c2oc(-c3ccc(Cl)cc3)nc2C#N)CC1"
test_system = "M14 melanoma"
group = "inactive"

[[record]]
compound = "Fc1ccc(Nc2nc(NCCNc3ccnc4cc(Cl)ccc34)nc(N3CCOCC3)n2)cc1"
test_system = "M14 melanoma"
group = "inactive"

